Origin of the recorded values: patent US11174251B2

# Target desc: JAK3 (Homo sapiens, UniProt P52333)
# Construct: The Ramos B-cell line was acquired from ATCC (ATCC Catalog No. CRL-1596)
# Sequence (P52333 whole entry): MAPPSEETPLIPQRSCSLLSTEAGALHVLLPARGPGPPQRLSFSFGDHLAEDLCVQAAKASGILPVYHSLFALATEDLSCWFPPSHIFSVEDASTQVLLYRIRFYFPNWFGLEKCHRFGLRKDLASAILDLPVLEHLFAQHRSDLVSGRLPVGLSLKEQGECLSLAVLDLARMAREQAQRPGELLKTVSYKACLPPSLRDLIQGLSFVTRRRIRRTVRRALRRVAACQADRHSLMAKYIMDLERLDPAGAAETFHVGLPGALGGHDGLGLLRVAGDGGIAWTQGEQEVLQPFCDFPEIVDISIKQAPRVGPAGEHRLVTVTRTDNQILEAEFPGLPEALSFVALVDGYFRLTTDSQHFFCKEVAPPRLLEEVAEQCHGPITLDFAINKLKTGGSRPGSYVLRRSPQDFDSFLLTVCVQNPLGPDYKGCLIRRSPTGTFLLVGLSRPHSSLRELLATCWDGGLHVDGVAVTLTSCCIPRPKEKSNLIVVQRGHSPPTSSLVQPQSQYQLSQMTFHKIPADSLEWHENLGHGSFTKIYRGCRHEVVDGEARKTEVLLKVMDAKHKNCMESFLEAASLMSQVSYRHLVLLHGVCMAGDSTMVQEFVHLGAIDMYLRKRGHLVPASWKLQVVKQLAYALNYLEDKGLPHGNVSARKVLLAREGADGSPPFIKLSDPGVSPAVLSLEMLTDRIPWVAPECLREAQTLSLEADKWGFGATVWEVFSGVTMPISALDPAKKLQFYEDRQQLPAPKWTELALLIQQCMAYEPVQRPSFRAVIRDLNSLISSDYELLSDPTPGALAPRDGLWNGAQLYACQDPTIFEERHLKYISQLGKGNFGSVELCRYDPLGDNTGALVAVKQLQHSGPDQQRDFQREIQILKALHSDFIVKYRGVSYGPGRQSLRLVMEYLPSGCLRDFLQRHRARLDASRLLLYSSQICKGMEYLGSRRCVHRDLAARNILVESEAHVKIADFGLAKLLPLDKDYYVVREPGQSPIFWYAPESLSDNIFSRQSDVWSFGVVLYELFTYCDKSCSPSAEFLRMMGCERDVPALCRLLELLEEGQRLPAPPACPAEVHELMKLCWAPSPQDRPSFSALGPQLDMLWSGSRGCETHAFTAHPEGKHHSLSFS
# Assay explanation: Assay for CD23 expression on Ramos B-cells stimulated by IL-4 (Table IV: ability to inhibit JAK3 activity)
# Condition label: tested under conditions described in Example 3 (so in the source)
Structures can show the parent of a compound that is named as a salt.
Readout kind: IC50

Worked examples follow.
| Compound | Result value |
| --- | --- |
| COc1cccc(Nc2ncc(C)c(Nc3ccc4oc(=O)[nH]c4c3)n2)n1 [II-20] | < 500 nM |
| Cc1cnc(Nc2cc(C)c(C)c(C)c2)nc1Nc1cc(CN2CCCC2)c2oc(=O)[nH]c2c1 [Compound I-91] | 500 to 5000 nM |
| Cc1cc(Nc2ncc(CN3CCCCC3)c(Nc3ccc4oc(=O)[nH]c4c3)n2)cc(C)c1C [Compound I-99] | > 10000 nM |
| COC(=O)c1cnc(Nc2ccc(C)c(N(C)C)c2)nc1Nc1ccc2oc(=O)[nH]c2c1 [Compound I-57, trifluoroacetate salt] | > 10000 nM |
| NC(=O)c1ccc(Nc2ncc(Cl)c(Nc3ccc4oc(=O)[nH]c4c3)n2)cc1 [Compound I-11, trifluoroacetate salt] | < 500 nM |

## Task Record [2H]C([2H])([2H])c1c(C)cc(Nc2ncc(C)c(Nc3ccc4oc(=O)[nH]c4c3)n2)cc1C [Compound I-35, trifluoroacetate salt] : what is its IC50 with JAK3 (Homo sapiens, UniProt P52333)?
## Result < 500 nM

## Task // query: COC(=O)c1cnc(Nc2ccc(F)c(OC)c2F)nc1Nc1ccc2oc(=O)[nH]c2c1 [Compound I-48, trifluoroacetate salt]
## Result > 10000 nM

## Task // query: CCNc1cc(Nc2ncc(C)c(Nc3ccc4oc(=O)[nH]c4c3)n2)cc(C)c1C [Compound I-85, formate salt]
## Result < 500 nM

## Task // query: CCOC(=O)c1c(C)cc(Nc2ncc(C)c(Nc3ccc4oc(=O)[nH]c4c3)n2)cc1OC [Compound I-128]
## Result < 500 nM

## Task // query: Cc1cc(C)cc(Nc2ncc(F)c(Nc3cc(F)c4oc(=O)[nH]c4c3)n2)c1 [Compound I-187, trifluoroacetate salt]
## Result < 500 nM

## Task // query: CC(C)NC(=O)c1ccc(Nc2ncc(F)c(Nc3ccc4oc(=O)[nH]c4c3)n2)cc1 [Compound I-163, formate salt]
## Result < 500 nM

## Task // query: Cc1cc(C)cc(Nc2ncc(Cl)c(Nc3ccc4oc(=O)[nH]c4c3)n2)c1 [Compound I-10, trifluoroacetate salt]
## Result < 500 nM

## Task // query: O=c1[nH]c2cc(Nc3nc(Nc4cc(F)cc(N5CCOCC5)c4)ncc3F)ccc2o1 [Compound I-169, ditrifluoroacetate salt]
## Result < 500 nM
